# Tested on: OVCAR-5 ovarian
# test-summary: NCI tumour cell line growth inhibition, 48 h
reported-metric: TGI

INSERT INTO results (molecule, recorded_measurement) VALUES
  ('O=C1C2CCCC2N1Cc1ccccc1 (stereo not given)', '> 100 µM'),
  ('CC1CN=C(N(C(=O)Nc2ccc(Cl)cc2)c2cccc(Cl)c2)S1 (stereo not given)', '> 100 µM'),
  ('O=C(N/C(=C\c1cccc([N+](=O)[O-])c1)c1nc2c3c(ccc2[nH]1)C(=O)c1ccccc1C3=O)c1ccccc1', '90.4 µM');

Q: Report TGI, nothing else, for this molecule: CC[C@H](C)[C@H](NC(=O)c1ncccn1)C(=O)N(C)[C@H](C[C@@H](OC(C)=O)c1nc(C(=O)N[C@@H](Cc2ccccc2)C[C@H](C)C(=O)OC)cs1)C(C)C
A: > 25 µM

Q: Report TGI, nothing else, for this molecule: N#C[S-].[Ce+3].c1ccc(-c2ccccn2)nc1.c1ccc(-c2ccccn2)nc1.c1ccc(-c2ccccn2)nc1
A: 42.9 µM

Q: Report TGI, nothing else, for this molecule: COC(=O)c1ccc(NCC2=CC(=O)C=CC2=O)cc1O
A: 36.9 µM

Q: Report TGI, nothing else, for this molecule: C/C(=N\NC(=O)c1ccccc1O)c1c(O)cc(C)oc1=O
A: > 100 µM

Q: Report TGI, nothing else, for this molecule: CC(=O)O[C@H]1CC[C@@]2(C)C(=CC[C@H]3C(CC#N)[C@@](C)(C#N)CCC32)C1 (stereo not given in full)
A: > 100 µM

Q: Report TGI, nothing else, for this molecule: Cn1c(=O)nc2n(-c3ccc(F)c(F)c3)c3ccccc3nc-2c1=O
A: 37.5 µM

Q: Report TGI, nothing else, for this molecule: FC(F)(F)c1cccc(Oc2ccc(Nc3ncnc4ccc(OCCCN5CCOCC5)cc34)cc2Cl)c1
A: 7.76 µM

Q: Report TGI, nothing else, for this molecule: Cc1ccc2c(ccc3ncc(CNc4ccc(NS(C)(=O)=O)cc4)c32)[nH]1
A: 53.8 µM

Q: Report TGI, nothing else, for this molecule: C=CCN=C1NC(=O)C(CC(=O)Nc2cccc(Cl)c2)S1 (stereo not given)
A: > 100 µM

Q: Report TGI, nothing else, for this molecule: O=C(N/N=C\c1ccc(N(CCCl)CCCl)cc1)c1cccnc1
A: > 100 µM

Q: Report TGI, nothing else, for this molecule: COC(=O)C(/C(=N/N)C(=O)Nc1cc(Cl)ccc1Cl)c1nc2ccc([N+](=O)[O-])cc2[nH]c1=O (stereo not given)
A: > 100 µM

Q: Report TGI, nothing else, for this molecule: COc1ccc2c(c1)C(=O)c1c-2n(CCCN=[N+]=[N-])c(=O)c2cc([N+](=O)[O-])ccc12
A: > 100 µM

Q: Report TGI, nothing else, for this molecule: OCC1CC2C=CCC(C2)C1 (stereo not given)
A: > 100 µM

Q: Report TGI, nothing else, for this molecule: Cc1cc(OP2(=O)NCc3ccncc3O2)ccc1Cl (stereo not given)
A: > 100 µM

Q: Report TGI, nothing else, for this molecule: COc1ccc(Cc2ccc3[nH]c(=O)cc(C)c3c2)cc1S(=O)(=O)O
A: > 100 µM

Q: Report TGI, nothing else, for this molecule: CC1=C(O)C(=O)C2C(=O)C1C(C)C2c1ccccc1 (stereo not given)
A: > 100 µM

Q: Report TGI, nothing else, for this molecule: Brc1ccc2nc(-c3cccs3)nc(N3CCN(c4ccccc4)CC3)c2c1
A: > 100 µM
